# measurement_notes: Pharmacokinetics of PEA after intravenous administration in male Sprague-Dawley rats
# Type: in vivo, Sprague-Dawley rat
# condition_parameters: male, Sprague-Dawley, rat, in vivo, iv, 1 mg/kg, AUC∞, individual rats
quantity: AUC(0-inf) (ng·h/mL)
Numbers only, in ng·h/mL.

Query: Returns the measured AUC(0-inf) for the input compound. Input: CCCCCCCCCCCCCCCC(=O)NCCO [PEA, palmitoylethanolamide]
Result: 57.6

====

# measurement_notes: in vitro
# condition_parameters: male, Sprague-Dawley, rat, s9, Half-life
quantity: half-life at 1 μM

Completed entries (count: 2):
CCCCCCCCCCCCCCCC(=O)NCCOC(=O)CCC(=O)OC(COC(=O)CCC)COC(=O)CCC : < 10 min
CCCCC/C=C\C/C=C\CCCCCCCC(=O)OCC(COC(=O)CCC(=O)OCCNC(=O)CCCCCCCCCCCCCCC)OC(=O)CCCCCCC/C=C\C/C=C\CCCCC (stereo not drawn) : 50 min

Query: Returns the measured half-life at 1 μM for the input compound. Input: `CCCCCCCCCCCCCCCC(=O)NCCOC(=O)CCC(=O)OC(CO)CO`
Result: < 10 min

====

Please provide measured Measured concentration of analyte PEA, 60 min for the entries that follow.
# measurement_notes: in vitro
# condition_parameters: male, Sprague-Dawley, rat, 60 min, 1 μM
Numbers only, in µM.

For each listed entry, give its Measured concentration of analyte PEA, 60 min.
1. CCCCCCCCCCCCCCCC(=O)NCCOC(=O)CCC [Compound I-2]
2. CCCCC/C=C\C/C=C\CCCCCCCC(=O)OCCNC(=O)CCCCCCCCCCCCCCC [Compound I-6]

Result:
1: 0; 2: 0.0012

For each listed entry, give its Measured concentration of analyte PEA, 60 min.
1. CC/C=C\C/C=C\C/C=C\C/C=C\C/C=C\CCCC(=O)OCCNC(=O)CCCCCCCCCCCCCCC [Compound I-5]
2. CCCCCCCCCCCCCCCC(=O)NCCOC(=O)CCC(=O)OCC(COC(=O)CCCCCCC)OC(=O)CCCCCCC (stereo not shown) [Compound I-3, PEA-Succinate-Glycerol-Di-Caprylic]
3. CCCCCCCCCCCCCCCC(=O)NCCOC(=O)CCC(=O)OCC(O)CO (stereo not shown) [Compound I-9]

Result:
0.0027
0
0

For each listed entry, give its Measured concentration of analyte PEA, 60 min.
1. CCCCCCCCCCCCCCCC(=O)NCCOC(=O)CCC(=O)OC[C@H]1O[C@@](CO)(O[C@H]2O[C@H](CO)[C@@H](O)[C@H](O)[C@H]2O)[C@@H](O)[C@@H]1O [Compound I-7]
2. CCCCCCCCCCCCCCCC(=O)NCCOC(=O)CCC(=O)OCC(COC(=O)CCC)OC(=O)CCC (stereo not shown) [Compound I-11]

Result:
[0.0085, 0]

====

# measurement_notes: in vitro
# condition_parameters: male, Sprague-Dawley, rat, microsomes, CLint, calculated value in parentheses
Note to self: microsomal CLint at 1 μM under 500 µL/min/mg means true (1), ties and anything higher get false (0).

Study these solved cases before continuing.
CCCCCCCCCCCCCCCC(=O)NCCOC(=O)CCC(=O)OCC(O)CO (stereo not drawn) : false (0)
CCCCCCCCCCCCCCCC(=O)NCCOC(=O)CCC(=O)OC(COC(=O)CCC)COC(=O)CCC : true (1)
CC/C=C\C/C=C\C/C=C\C/C=C\C/C=C\CCCC(=O)OCCNC(=O)CCCCCCCCCCCCCCC : true (1)
CCCCC/C=C\C/C=C\CCCCCCCC(=O)OCCNC(=O)CCCCCCCCCCCCCCC : true (1)
CCCCCCCCCCCCCCCC(=O)NCCOC(=O)CCC(=O)OC(CO)CO : false (0)

Query molecule follows.
Query: Please check: microsomal CLint at 1 μM for CCCCCCCCCCCCCCCC(=O)NCCOC(=O)CCC(=O)OCC(COC(=O)CCCCCCC)OC(=O)CCCCCCC (stereo not drawn) [Compound I-3, PEA-Succinate-Glycerol-Di-Caprylic] , strictly under 500 µL/min/mg or not?
Result: true (1)

====

# measurement_notes: Liver S9 stability, mouse
# condition_parameters: male, CD-1, mouse, s9
quantity: half-life (min)
Give bare numbers, in min.

Query: Returns the measured half-life for the input molecule. Input: C[C@]12CC[C@H]3[C@@H](CCC4=CC(=O)CC[C@@]43C)[C@@H]1CC[C@@H]2O [Testosterone, testosterone, reference compound]
Result: 8.7

====

# measurement_notes: in vitro
# condition_parameters: male, Sprague-Dawley, rat, s9, 10 min, 1 μM
Please provide measured % Remaining of Initial (n = 1), 10 min for the entries that follow.

Completed entries (count: 5):
CCCCCCCCCCCCCCCC(=O)NCCOC(=O)CCC [Compound I-2] : <1.0%
CCCCCCCCCCCCCCCC(=O)NCCOC(=O)CCC(=O)OC[C@H]1O[C@@](CO)(O[C@H]2O[C@H](CO)[C@@H](O)[C@H](O)[C@H]2O)[C@@H](O)[C@@H]1O [Compound I-7] : 43%
CCCCCCCCCCCCCCCC(=O)NCCOC(=O)CCC(=O)OCC(COC(=O)CCC)OC(=O)CCC (stereo not shown) [Compound I-11] : <1.0%
CCCCCCCCCCCCCCCC(=O)NCCOC(=O)CCC(=O)OCC(O)CO (stereo not shown) [Compound I-9] : 13%
CC/C=C\C/C=C\C/C=C\C/C=C\C/C=C\CCCC(=O)OCCNC(=O)CCCCCCCCCCCCCCC [Compound I-5] : 98%

For each listed entry, give its % Remaining of Initial (n = 1), 10 min.
1. CCCCC/C=C\C/C=C\CCCCCCCC(=O)OCCNC(=O)CCCCCCCCCCCCCCC [Compound I-6]
2. CCCCCCCCCCCCCCCC(=O)NCCOC(=O)CCC(=O)OCC(COC(=O)CCCCCCC)OC(=O)CCCCCCC (stereo not shown) [Compound I-3, PEA-Succinate-Glycerol-Di-Caprylic]

Result:
["64%", "66%"]

====

# measurement_notes: Plasma stability (37° C., pH 7.4), dog
# Format: in vitro ADME, Beagle dog
# condition_parameters: male, Beagle, dog, plasma, pH 7.4, dog plasma
quantity: half-life at 1 μM (min)
One number for each entry, in min.

Query: Returns the measured half-life at 1 μM for the input compound. Input: CCCCCCCCCCCCCCCC(=O)NCCOC(=O)CCC(=O)OC(COC(=O)CCC)COC(=O)CCC [Compound I-16]
Result: 44

====

# measurement_notes: Simulated intestinal fluid (SIF) stability in the presence of various enzymes
# Format: in vitro ADME
# condition_parameters: SIF + Carboxypeptidase B, 30 min, 1 μM
quantity: % Remaining of Initial (n = 1) (%)
Answers are plain numbers, in %.

Completed entries (count: 2):
CCCCCCCCCCCCCCCC(=O)NCCOC(=O)CCC(=O)OC[C@H]1O[C@@](CO)(O[C@H]2O[C@H](CO)[C@@H](O)[C@H](O)[C@H]2O)[C@@H](O)[C@@H]1O [Compound I-7] : 14
CC/C=C\C/C=C\C/C=C\C/C=C\C/C=C\CCCC(=O)OCCNC(=O)CCCCCCCCCCCCCCC [Compound I-5] : 62

Attention now shifts to the item below.
Query: Returns the measured % Remaining of Initial (n = 1) for the input compound. Input: CCCCCCCCCCCCCCCC(=O)NCCOC(=O)CCC(=O)OCC(COC(=O)CCCCCCC)OC(=O)CCCCCCC (stereo not drawn) [Compound I-3, PEA-Succinate-Glycerol-Di-Caprylic]
Result: 77

====

# measurement_notes: Simulated intestinal fluid (SIF) stability in the presence of various enzymes
# Assay type: in vitro ADME
# condition_parameters: SIF + Pancreatin, 15 min, 1 μM
quantity: % Remaining of Initial (n = 1) (%)
Numbers only, in %.

CCCCCCCCCCCCCCCC(=O)NCCOC(=O)CCC(=O)OCC(O)CO (centres unmarked) [Compound I-9] : 35
CCCCCCCCCCCCCCCC(=O)NCCOC(=O)CCC(=O)OC[C@H]1O[C@@](CO)(O[C@H]2O[C@H](CO)[C@@H](O)[C@H](O)[C@H]2O)[C@@H](O)[C@@H]1O [Compound I-7] : 40
CCCCCCCCCCCCCCCC(=O)NCCOC(=O)CCC [Compound I-2] : 93
CCCCC/C=C\C/C=C\CCCCCCCC(=O)OCCNC(=O)CCCCCCCCCCCCCCC [Compound I-6] : 27
CC/C=C\C/C=C\C/C=C\C/C=C\C/C=C\CCCC(=O)OCCNC(=O)CCCCCCCCCCCCCCC [Compound I-5] : 13

Attention now shifts to the item below.
Query: Returns the measured % Remaining of Initial (n = 1) for the input molecule. Input: CCCCC/C=C\C/C=C\CCCCCCCC(=O)OCC(COC(=O)CCC(=O)OCCNC(=O)CCCCCCCCCCCCCCC)OC(=O)CCCCCCC/C=C\C/C=C\CCCCC (centres unmarked) [Compound I-13]
Result: 1.3
